B1: USP39 (parent)
chain: FQGSMRIFTKKLPHPDLPAEEKEQ

- Variants of: B1
- assay.comment: protein stability index of a GFP-peptide fusion (GPS, HEK-293T) (PSI 1-6); higher = more stable;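 note: lentivirally expressed fusions sorted by FACS into six bins by GFP to DsRed ratio, PSI derived from sequencing read proportions per bin multiplied by bin number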
- setup.conditions: c terminus: a fixed tail appended
Entry flag: Met if protein stability index reaches 2; Not met if it does not.

>>> df
    alteration    group
 0        L12S      Met
 1         I7G      Met
 2        E20F  Not met
 3         F1P      Met
 4         F8C      Met
 5        L12M      Met
 6        P15N      Met
 7         T9L  Not met
 8         S4Q      Met
 9         R6D  Not met
10         Q2R      Met
11        Q24G      Met
12        L12H      Met
13        K10M  Not met
14         Q2C      Met
15         M5A      Met
16        Q24W  Not met
17        Q24D      Met
18         F8Y      Met
19         T9Y  Not met
20        E23R  Not met
21        L12E  Not met
22         M5Q      Met
23         F8I      Met
